Taken from patent US7537765B2.

# System: primary Clade B HIV-1 isolates
# ASSAY_EXPLANATION: Virus inhibition assay, primary HIV-1 isolates in PBMC, p24 endpoint
# Type: cell-based
# EXPERIMENTAL_CONTEXT: isolate 22101N*, co-receptor R5/X4, PBMC, p24 day 7; read-out: IC50
QUANTITY_MEASURED: IC50 (nM)
Give bare numbers, in nM.

// query Hello, I am looking for reported IC50 with primary Clade B HIV-1 isolates for C=C(C)[C@@H]1CC[C@]2(C(=O)O)CC[C@]3(C)[C@H](CC[C@@H]4[C@@]5(C)CC[C@H](OC(=O)CC(C)(C)C(=O)O)C(C)(C)[C@@H]5CC[C@]43C)[C@@H]12 [DSB] . Could you help?
// result 2.6

---

Provide the reported IC50 of each item.
# Tested on: primary Clade B HIV-1 isolates
# ASSAY_EXPLANATION: Virus inhibition assay, primary HIV-1 isolates in PBMC, p24 endpoint
# Type: cell-based
# EXPERIMENTAL_CONTEXT: Human immunodeficiency virus 1, PBMC, mean over the panel of primary isolates; read-out: IC50, Mean
# Protocol: A robust virus inhibition assay was used to evaluate the anti-viral activity of DSB against primary HIV-1 isolates propagated in PMBC. Briefly, serial dilutions of DSB were made in medium into 96-well tissue culture plates. 25-250 TCID50 of virus and 5×10^5 PHA-stimulated PBMCs were added to each well. On days 1, 3 and 5 post-infection, media was removed from each well and replaced with fresh media containing DSB at the appropriate concentration. […]
Answers are plain numbers, in nM.

For every item in the list below, what is its measured IC50?
1. Cc1cn([C@H]2C[C@H](N=[N+]=[N-])[C@@H](CO)O2)c(=O)[nH]c1=O [AZT, zidovudine]
2. Cc1ccnc2c1NC(=O)c1cccnc1N2C1CC1 [Nevirapine, nevirapine]

// result
4.4
28.8

---

# System: NNRTI-resistant HIV-1 isolates
# ASSAY_EXPLANATION: NNRTI-resistant HIV-1 isolates in MT-2 cells, cell viability (XTT) endpoint
# Assay type: cell-based
# EXPERIMENTAL_CONTEXT: isolate 3, NNRTI-resistant, Y181C, X4, MT-2 cells; read-out: IC50
QUANTITY_MEASURED: IC50 (nM)
Answers are plain numbers, in nM.

// query Find the recorded IC50 belonging to C=C(C)[C@@H]1CC[C@]2(C(=O)O)CC[C@]3(C)[C@H](CC[C@@H]4[C@@]5(C)CC[C@H](OC(=O)CC(C)(C)C(=O)O)C(C)(C)[C@@H]5CC[C@]43C)[C@@H]12 [DSB] and report it.
// result 1

---

# Tested on: primary Clade B HIV-1 isolates
# ASSAY_EXPLANATION: Virus inhibition assay, primary HIV-1 isolates in PBMC, p24 endpoint
# Assay type: cell-based
# EXPERIMENTAL_CONTEXT: Human immunodeficiency virus 1, PBMC, 168 h, isolate 92HT599, co-receptor X4, PBMC, p24 day 7; read-out: IC50
Provide the reported IC50 of each item.
Numbers only, in nM.

For every item in the list below, what is its measured IC50?
1. Cc1ccnc2c1NC(=O)c1cccnc1N2C1CC1
2. Cc1cn([C@H]2C[C@H](N=[N+]=[N-])[C@@H](CO)O2)c(=O)[nH]c1=O

// result
[25.3, 5.8]
